# credit: patent US20250214991A1

The following compounds are listed with their measured DC50 values.
Target: IKZF1 (Homo sapiens (Human), UniProt Q13422+Q96SW2)
Sequence (Q13422 whole entry): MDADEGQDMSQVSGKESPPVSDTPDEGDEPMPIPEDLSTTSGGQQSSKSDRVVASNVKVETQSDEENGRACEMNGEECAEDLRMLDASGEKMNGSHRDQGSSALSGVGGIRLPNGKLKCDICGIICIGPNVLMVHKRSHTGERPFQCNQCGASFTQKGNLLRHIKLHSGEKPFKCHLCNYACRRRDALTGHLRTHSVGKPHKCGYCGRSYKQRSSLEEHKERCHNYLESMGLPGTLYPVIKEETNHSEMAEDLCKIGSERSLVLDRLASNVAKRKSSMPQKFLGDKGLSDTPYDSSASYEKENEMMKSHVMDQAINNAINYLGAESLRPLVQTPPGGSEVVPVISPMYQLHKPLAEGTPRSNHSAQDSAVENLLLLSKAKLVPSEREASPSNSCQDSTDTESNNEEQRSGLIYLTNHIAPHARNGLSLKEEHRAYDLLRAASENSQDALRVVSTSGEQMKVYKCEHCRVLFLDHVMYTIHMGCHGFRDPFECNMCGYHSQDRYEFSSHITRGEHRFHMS
Sequence (Q96SW2 whole entry): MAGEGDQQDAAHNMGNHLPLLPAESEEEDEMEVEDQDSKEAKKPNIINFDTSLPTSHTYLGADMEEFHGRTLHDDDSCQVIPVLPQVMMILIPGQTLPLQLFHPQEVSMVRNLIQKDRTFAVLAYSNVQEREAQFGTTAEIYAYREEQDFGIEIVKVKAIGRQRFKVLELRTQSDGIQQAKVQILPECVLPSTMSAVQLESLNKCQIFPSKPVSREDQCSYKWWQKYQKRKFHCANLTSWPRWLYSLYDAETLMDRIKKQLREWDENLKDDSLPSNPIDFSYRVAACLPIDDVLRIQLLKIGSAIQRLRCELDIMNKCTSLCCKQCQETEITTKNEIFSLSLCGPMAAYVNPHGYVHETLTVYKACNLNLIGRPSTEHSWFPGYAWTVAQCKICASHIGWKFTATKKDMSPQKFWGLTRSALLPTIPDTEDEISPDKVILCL
Sequence (Q16531 2-1140 partner): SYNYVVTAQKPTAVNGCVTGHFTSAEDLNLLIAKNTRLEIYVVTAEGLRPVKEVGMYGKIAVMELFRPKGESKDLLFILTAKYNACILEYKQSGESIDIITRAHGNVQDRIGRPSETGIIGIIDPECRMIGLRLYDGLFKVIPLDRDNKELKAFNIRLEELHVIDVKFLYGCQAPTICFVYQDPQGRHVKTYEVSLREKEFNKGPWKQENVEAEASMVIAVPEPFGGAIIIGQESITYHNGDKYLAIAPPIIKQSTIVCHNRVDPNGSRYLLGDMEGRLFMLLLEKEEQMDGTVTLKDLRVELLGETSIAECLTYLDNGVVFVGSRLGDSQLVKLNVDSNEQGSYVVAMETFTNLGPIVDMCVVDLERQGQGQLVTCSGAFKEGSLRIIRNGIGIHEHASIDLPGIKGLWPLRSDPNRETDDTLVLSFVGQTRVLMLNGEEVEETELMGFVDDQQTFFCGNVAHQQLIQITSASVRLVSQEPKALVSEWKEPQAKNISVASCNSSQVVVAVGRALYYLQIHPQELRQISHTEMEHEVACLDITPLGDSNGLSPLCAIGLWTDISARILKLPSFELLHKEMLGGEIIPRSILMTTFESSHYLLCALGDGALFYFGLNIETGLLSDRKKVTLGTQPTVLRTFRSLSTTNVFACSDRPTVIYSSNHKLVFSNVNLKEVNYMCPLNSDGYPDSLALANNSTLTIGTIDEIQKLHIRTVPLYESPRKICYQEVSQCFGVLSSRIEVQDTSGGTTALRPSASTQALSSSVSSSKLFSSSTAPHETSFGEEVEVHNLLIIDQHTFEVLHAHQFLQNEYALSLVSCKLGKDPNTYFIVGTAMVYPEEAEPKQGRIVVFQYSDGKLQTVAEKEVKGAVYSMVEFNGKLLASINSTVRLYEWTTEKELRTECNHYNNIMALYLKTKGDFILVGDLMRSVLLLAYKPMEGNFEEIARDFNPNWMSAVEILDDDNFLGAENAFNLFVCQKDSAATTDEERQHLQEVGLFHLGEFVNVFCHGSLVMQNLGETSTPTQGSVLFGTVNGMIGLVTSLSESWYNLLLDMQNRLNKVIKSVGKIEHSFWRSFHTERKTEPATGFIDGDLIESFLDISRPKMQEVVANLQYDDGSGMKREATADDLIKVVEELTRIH
Assay info: In vitro IKZF1 HiBit Assay (HEK293T Flp-in-HiBiT-IKZF1 stable cell line)
Assay type: cell-based
Settings: HEK293T Flp-in-HiBiT-IKZF1 stable cell line, 6 hrs incubation; read-out: IKZF1 HiBit DC50

Compound | DC50
CC(C)Cn1ccc2c(CN3CCCC3)cc(-c3ccc4c(c3)CN(C3CCC(=O)NC3=O)C4=O)nc21 (centres unmarked) [Example 140] | > 10 µM
O=C1CCC(N2Cc3cc(-c4cc(CN5CCC6(CC5)CC6)cc5cncn45)ccc3C2=O)C(=O)N1 (centres unmarked) [Example 8] | > 10 µM
Cn1cnc(-n2ccc3c(CN4CCCC4)cc(-c4ccc5c(c4)CN([C@H]4CCC(=O)NC4=O)C5=O)nc32)c1 [Example 263] | > 10 µM
O=C1CCC(N2Cc3cc(-c4cc(CN5CCCC5)c5ccn(C6CCC6)c5n4)ccc3C2=O)C(=O)N1 (centres unmarked) [Example 128] | 0.01 to 0.1 µM
O=C1CCC(N2Cc3cc(-c4cc(CN5CCCC5)c5ccn(C6CNC6)c5n4)ccc3C2=O)C(=O)N1 (centres unmarked) [Example 168] | 1 to 10 µM
Cn1ccc2c(CN3CCC(C(F)(F)F)CC3)cc(-c3ccc4c(c3)CN(C3CCC(=O)NC3=O)C4=O)nc21 (centres unmarked) [Example 90] | 0.01 to 0.1 µM
O=C1CCC(N2Cc3cc(-c4cc(CN5CCCC5)c5nccc(C6CCC6)c5n4)ccc3C2=O)C(=O)N1 (centres unmarked) [Example 247] | > 10 µM
Cn1ccc2c(CN3CC4(CCOCC4)C3)cc(-c3ccc4c(c3)CN(C3CCC(=O)NC3=O)C4=O)nc21 (centres unmarked) [Example 100] | 0.01 to 0.1 µM
O=C1CCC(N2Cc3cc(-c4cc(CN5CCCC5)c5nccc(OCCO)c5n4)ccc3C2=O)C(=O)N1 (centres unmarked) [Example 285] | > 10 µM
Nc1n[nH]c2c(CN3CCC(O)C3)cc(-c3ccc4c(c3)CN(C3CCC(=O)NC3=O)C4=O)nc12 (centres unmarked) [Example 196] | > 10 µM
CC(C)Oc1n[nH]c2c(CN3CCCC3)cc(-c3ccc4c(c3)CN(C3CCC(=O)NC3=O)C4=O)nc12 (centres unmarked) [Example 238] | > 10 µM
CC1c2cc(-c3cc(CN4CCCC4)c4ccn(C5CS(=O)(=O)C5)c4n3)ccc2C(=O)N1C1CCC(=O)NC1=O (centres unmarked) [Example 292] | 0.01 to 0.1 µM
O=C1CCC(N2Cc3cc(-c4cc(CN5CCCC5)c5c(n4)NC(=O)C5)ccc3C2=O)C(=O)N1 (centres unmarked) [Example 200] | 0.1 to 1 µM
Cn1ccc2c(CN3Cc4ccccc4C3)cc(-c3ccc4c(c3)CN(C3CCC(=O)NC3=O)C4=O)nc21 (centres unmarked) [Example 67] | > 10 µM
Cc1cc(-c2ccc3c(c2)CN(C2CCC(=O)NC2=O)C3=O)nc2c1nc(CN1CCCC1)n2C1COC1 (centres unmarked) [Example 259] | > 10 µM
O=C1CCC(N2Cc3c(ccc(-c4cc(CN5CCC(F)CC5)c5ccn(C6CS(=O)(=O)C6)c5n4)c3F)C2=O)C(=O)N1 (centres unmarked) [Example 268] | 0.01 to 0.1 µM
CC(C)Nc1n[nH]c2c(CN3CCC(F)CC3)cc(-c3ccc4c(c3F)CN(C3CCC(=O)NC3=O)C4=O)nc12 (centres unmarked) [Example 282] | 1 to 10 µM
O=C1CCC(N2Cc3cc(-c4cc(CN5CCCC5)c5ccn(C6CCOCC6)c5n4)ccc3C2=O)C(=O)N1 (centres unmarked) [Example 171] | > 10 µM
O=C1CCC(N2Cc3cc(-c4cc(CN5CCCC5)c5ccn(C6CC6)c5n4)ccc3C2=O)C(=O)N1 (centres unmarked) [Example 119] | 1 to 10 µM
CN(C)C(=O)Cn1ccc2c(CN3CCCC3)cc(-c3ccc4c(c3)CN(C3CCC(=O)NC3=O)C4=O)nc21 (centres unmarked) [Example 149] | > 10 µM
O=C1CCC(N2Cc3cc(-c4nc(CN5CCCC5)c5ccn(C6COC6)c5n4)ccc3C2=O)C(=O)N1 (centres unmarked) [Example 218] | 0.1 to 1 µM
COC1CCN(Cc2cc(-c3ccc4c(c3F)CN(C3CCC(=O)NC3=O)C4=O)nc3c(NC(C)C)n[nH]c23)CC1 (centres unmarked) [Example 283] | > 10 µM
O=C1CCC(N2Cc3cc(-c4cc(CN5CCCC5)c5ccn(C6CC(F)(F)C6)c5n4)ccc3C2=O)C(=O)N1 (centres unmarked) [Example 274] | 1 to 10 µM
Cn1ccc2c(O[C@@H]3CCNC3)cc(-c3ccc4c(c3)CN([C@H]3CCC(=O)NC3=O)C4=O)nc21 [Example 219] | 0.1 to 1 µM
Cc1nn(C2COC2)c2nc(-c3ccc4c(c3)CN(C3CCC(=O)NC3=O)C4=O)cc(CN3CCCC3)c12 (centres unmarked) [Example 246] | > 10 µM
Nc1nn(C2CC2)c2c(CN3CCCC3)cc(-c3ccc4c(c3)CN(C3CCC(=O)NC3=O)C4=O)nc12 (centres unmarked) [Example 210] | 0.1 to 1 µM
CS(=O)(=O)Nc1n[nH]c2c(CN3CCCC3)cc(-c3ccc4c(c3F)CN(C3CCC(=O)NC3=O)C4=O)nc12 (centres unmarked) [Example 297] | > 10 µM
Cn1ccc2c(CN3CCCC3)nc(-c3ccc4c(c3)CN(C3CCC(=O)NC3=O)C4=O)nc21 (centres unmarked) [Example 184] | 1 to 10 µM
O=C1CCC(N2Cc3cc(-c4cc(CN5CCCC5)c5ncccc5n4)ccc3C2=O)C(=O)N1 (centres unmarked) [Example 104] | > 10 µM

###

Target: IKZF2 (Homo sapiens (Human), UniProt Q96SW2+Q9UKS7)
Sequence (Q9UKS7 whole entry, one chain of several): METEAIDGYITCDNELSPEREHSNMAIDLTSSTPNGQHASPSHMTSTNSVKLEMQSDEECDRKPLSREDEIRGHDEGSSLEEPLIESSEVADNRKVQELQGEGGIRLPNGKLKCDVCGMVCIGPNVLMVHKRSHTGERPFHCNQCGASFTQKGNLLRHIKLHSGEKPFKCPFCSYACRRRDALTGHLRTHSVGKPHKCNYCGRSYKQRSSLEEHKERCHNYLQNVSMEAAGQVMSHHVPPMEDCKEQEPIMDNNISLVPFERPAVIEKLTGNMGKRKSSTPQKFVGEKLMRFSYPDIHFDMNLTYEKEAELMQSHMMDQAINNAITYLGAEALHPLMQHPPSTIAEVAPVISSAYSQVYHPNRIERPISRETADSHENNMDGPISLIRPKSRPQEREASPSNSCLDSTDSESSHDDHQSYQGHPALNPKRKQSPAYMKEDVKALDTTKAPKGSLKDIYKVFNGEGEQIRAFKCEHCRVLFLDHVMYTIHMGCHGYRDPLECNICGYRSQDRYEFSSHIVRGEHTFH
Assay info: In vitro IKZF2 HiBit Assay (HEK293T Flp-in-HiBiT cells)
Format: cell-based
Settings: HEK293T Flp-in-HiBiT cells, 6 hrs incubation; read-out: IKZF2 HiBit DC50
The compounds listed here are annotated with their DC50.
Measured parameter: DC50

Compound | Measurement
CC(C)Nc1n[nH]c2c(CN3CC4(COC4)C3)cc(-c3ccc4c(c3F)CN(C3CCC(=O)NC3=O)C4=O)nc12 (stereo not shown) | 10 to 100 nM
O=C1CCC(N2Cc3cc(-c4cc(CN5CCC(O)CC5)c5cc[nH]c5n4)ccc3C2=O)C(=O)N1 (stereo not shown) | 10 to 100 nM
COC[C@@H]1CCCN1Cc1cc(-c2ccc3c(c2)CN(C2CCC(=O)NC2=O)C3=O)nc2c1ccn2C1COC1 (stereo partly shown) | 1 to 10 nM
CC(C)Nc1n[nH]c2c(CN3CCCC3)cc(-c3ccc4c(c3)CN(C3CCC(=O)NC3=O)C4=O)nc12 (stereo not shown) | 1 to 10 nM

###

Target: IKZF1 (Homo sapiens (Human), UniProt Q13422+Q96SW2)
Assay info: In vitro IKZF1 HiBit Assay (HEK293T Flp-in-HiBiT-IKZF1 stable cell line)
Type: cell-based
Settings: HEK293T Flp-in-HiBiT-IKZF1 stable cell line, 6 hrs incubation; read-out: IKZF1 HiBit DC50
Measured parameter: DC50

Compound | Target | Measured parameter | Measurement
CC(C)n1nc(N)c2nc(-c3ccc4c(c3)CN(C3CCC(=O)NC3=O)C4=O)cc(CN3CCCC3)c21 (stereo not shown) [Example 177] | IKZF1 (Homo sapiens (Human), UniProt Q13422+Q96SW2) | DC50 | 10 to 100 nM
O=C1CCC(N2Cc3cc(-c4cc(CN5CCC(F)CC5)c5cc[nH]c5n4)ccc3C2=O)C(=O)N1 (stereo not shown) [Example 116] | IKZF1 (Homo sapiens (Human), UniProt Q13422+Q96SW2) | DC50 | 1 to 10 nM
C[C@@H]1CC[C@@H](C)N1Cc1cc(-c2ccc3c(c2)CN(C2CCC(=O)NC2=O)C3=O)nc2c1ccn2C (stereo partly shown) [Example 108] | IKZF1 (Homo sapiens (Human), UniProt Q13422+Q96SW2) | DC50 | > 10000 nM
CN1CC(n2ncc3c(CN4CCCC4)cc(-c4ccc5c(c4)CN(C4CCC(=O)NC4=O)C5=O)nc32)C1 (stereo not shown) [Example 261] | IKZF1 (Homo sapiens (Human), UniProt Q13422+Q96SW2) | DC50 | 10 to 100 nM

###

# inhibition at 1 µM listing for each entry below
Target: IKZF2 (Homo sapiens (Human), UniProt Q96SW2+Q9UKS7)
Assay info: In vitro IKZF2 Western Blot Assay in Jurkat cells
Type: cell-based
Settings: 24 hrs, 1 μM, read-out: IKZF2 degradation (%) @ μM 1

Molecule | Target | inhibition at 1 µM
O=C1CCC(N2Cc3cc(-c4cc(CN5CCC(F)(F)CC5)cn5ccnc45)ccc3C2=O)C(=O)N1 (stereo not shown) | IKZF2 (Homo sapiens (Human), UniProt Q96SW2+Q9UKS7) | < 30%
O=C1CCC(N2Cc3cc(-c4cc(CNCCc5c(F)cccc5F)cn5ccnc45)ccc3C2=O)C(=O)N1 (stereo not shown) | IKZF2 (Homo sapiens (Human), UniProt Q96SW2+Q9UKS7) | < 30%
O=C1CCC(N2Cc3cc(-c4cc(CNCCc5ccccc5Cl)cc5cncn45)ccc3C2=O)C(=O)N1 (stereo not shown) | IKZF2 (Homo sapiens (Human), UniProt Q96SW2+Q9UKS7) | > 50%
O=C1CCC(N2Cc3cc(-c4cc(CNCCc5ccccc5Cl)cn5ccnc45)ccc3C2=O)C(=O)N1 (stereo not shown) | IKZF2 (Homo sapiens (Human), UniProt Q96SW2+Q9UKS7) | < 30%
